// data source = patent US4800194A

In this section, each of the compounds is paired with its reported inhibition at 100 µM.
biological target: acetylcholinesterase (Homo sapiens, UniProt P22303); construct: The supernatant (lysed RBC's) was stored frozen; from tissue; host or cells: lysed human red blood cells (supernatant of hypotonic lysis); assay: Inhibition of acetylcholinesterase (AChE) activity of lysed human red blood cells (Test Method 1); format: biochemical; conditions: 100 μM; 60 min preincubation
Sequence (P22303 other isoform, or with tags, fused parts or gaps): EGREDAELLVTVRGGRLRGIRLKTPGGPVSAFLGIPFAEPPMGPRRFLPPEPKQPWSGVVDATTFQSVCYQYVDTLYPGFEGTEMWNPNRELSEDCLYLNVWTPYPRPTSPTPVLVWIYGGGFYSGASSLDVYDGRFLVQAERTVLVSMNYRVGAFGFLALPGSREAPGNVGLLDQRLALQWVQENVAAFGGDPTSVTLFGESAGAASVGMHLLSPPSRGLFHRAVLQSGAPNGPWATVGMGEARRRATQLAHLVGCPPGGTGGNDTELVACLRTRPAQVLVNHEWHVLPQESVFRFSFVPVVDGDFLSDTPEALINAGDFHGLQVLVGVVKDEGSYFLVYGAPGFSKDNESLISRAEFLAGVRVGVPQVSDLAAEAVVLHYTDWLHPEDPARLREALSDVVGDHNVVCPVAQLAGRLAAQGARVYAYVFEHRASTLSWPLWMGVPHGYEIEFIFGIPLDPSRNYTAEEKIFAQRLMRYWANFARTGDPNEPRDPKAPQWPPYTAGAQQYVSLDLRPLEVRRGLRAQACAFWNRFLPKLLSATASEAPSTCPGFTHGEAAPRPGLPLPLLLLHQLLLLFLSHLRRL
Note: unit % is implicit; provide only the numeric part.

# inhibition at 100 µM (compound: NP(N)(=O)NC(=O)c1c(F)cccc1F ) is 93.7

# inhibition at 100 µM (compound: CCCCOc1ccc(C(=O)NP(N)(N)=O)cc1 ) is 57.4

# inhibition at 100 µM (compound: NP(N)(=O)NC(=O)C=Cc1ccccc1 ) is 54.8

# inhibition at 100 µM (compound: NP(N)(=O)NC(=O)c1cccc(Oc2ccccc2)c1 ) is 64.2

* * *

target: pseudocholinesterase (Homo sapiens, UniProt P06276); construct: a 100 μl aliquot of human plasma; from tissue; host or cells: human plasma (EDTA blood, stored frozen); test: Inhibition of human plasma pseudocholinesterase (PChE) activity (Test Method 1); type: biochemical; settings: 1 μM; 30 min preincubation
Sequence (P06276 29-602): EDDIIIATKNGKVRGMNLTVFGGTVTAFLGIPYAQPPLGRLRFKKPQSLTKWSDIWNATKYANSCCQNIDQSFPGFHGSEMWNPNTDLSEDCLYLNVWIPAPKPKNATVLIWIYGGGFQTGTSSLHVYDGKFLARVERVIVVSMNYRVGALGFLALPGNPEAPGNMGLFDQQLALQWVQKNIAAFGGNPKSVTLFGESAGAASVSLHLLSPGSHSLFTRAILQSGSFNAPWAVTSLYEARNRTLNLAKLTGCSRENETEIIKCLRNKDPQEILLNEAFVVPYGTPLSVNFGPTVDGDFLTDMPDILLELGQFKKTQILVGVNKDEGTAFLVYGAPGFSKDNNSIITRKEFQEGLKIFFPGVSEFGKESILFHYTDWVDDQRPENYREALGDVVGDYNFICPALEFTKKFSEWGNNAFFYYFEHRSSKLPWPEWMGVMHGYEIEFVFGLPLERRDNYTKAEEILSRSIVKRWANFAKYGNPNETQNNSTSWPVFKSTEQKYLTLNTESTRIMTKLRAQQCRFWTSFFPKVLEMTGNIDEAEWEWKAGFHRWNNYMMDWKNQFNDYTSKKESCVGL
result type: inhibition at 1 µM
Answer as a quantity: numeral, then unit.

>>> value_reported("NP(N)(=O)NC(=O)c1ccccc1F [Test Compound 15]")
"97.4%"

# inhibition at 1 µM (molecule: N#Cc1ccc(C(=O)NP(N)(N)=O)cc1 [Test Compound 12] ) is 97.4%

# inhibition at 1 µM (molecule: CCCCOc1ccc(C(=O)NP(N)(N)=O)cc1 [Test Compound 22] ) is 28.8%

# inhibition at 1 µM (molecule: NP(N)(=O)NC(=O)c1ccc([N+](=O)[O-])cc1 [Test Compound 3] ) is 90.4%

# inhibition at 1 µM (molecule: NP(N)(=O)NC(=O)c1ccco1 [Test Compound 26] ) is 91%

# inhibition at 1 µM (molecule: CS(=O)(=O)c1ccc(C(=O)NP(N)(N)=O)cc1 [Test Compound 20] ) is 92.9%

# inhibition at 1 µM (molecule: Nc1ccc(S(=O)(=O)Nc2cccc(C(=O)NP(N)(N)=O)c2)cc1 [Test Compound 25] ) is 97.2%

# inhibition at 1 µM (molecule: COc1ccc(C(=O)NP(N)(N)=O)cc1 [Test Compound 8] ) is 83.4%

# inhibition at 1 µM (molecule: NP(N)(=O)NC(=O)c1ccc(F)cc1 [Test Compound 4, N-(diaminophosphinyl)-4-fluorobenzamide] ) is 92.8%

# inhibition at 1 µM (molecule: NP(N)(=O)NC(=O)c1ccc(Cl)cc1 [Test Compound 6] ) is 87.7%

* * *

Molecular target: acetylcholinesterase (Homo sapiens, UniProt P22303)
Construct: The supernatant (lysed RBC's) was stored frozen; from tissue; host or cells: lysed human red blood cells (supernatant of hypotonic lysis)
Experiment: Inhibition of acetylcholinesterase (AChE) activity of lysed human red blood cells (Test Method 1)
Assay type: biochemical
Details: 10 μM; 60 min preincubation
Procedure: The following method was used to determine the relative inhibition of pseudocholinesterase and acetylcholinesterase by compounds of the present invention. Lysed Red Blood Cells (RBC's) (Source of Acetylcholinesterase Enzyme) […] The acetylcholinesterase assay was performed identically to the pseudocholinesterase assay with the following exceptions. […] From a plot of net absorbance versus time there was an initial period before the curve reached a steady linear rate. […]
In this section, each of the molecules is paired with its reported inhibition at 10 µM.
Note: unit % is implicit; provide only the numeric part.

# inhibition at 10 µM (molecule: NP(N)(=O)NC(=O)c1ccco1 ) is 7.7
